- Test system: LNCaP tumor-bearing mice
- MEASUREMENT_DESCRIPTION: Ex vivo biodistribution in LNCaP tumor-bearing mice
- Parameters: species or system mouse
- ASSAY_CONTEXT: 1 h post-injection

MOLECULE	Pancreas uptake (%ID/g)
COc1ccc(CCCC(=O)NCC(=O)N[C@@H](CCCCNC(=O)CN2CCN(CC(=O)[O-])CCN(CC(=O)[O-])CCN(CC(=O)[O-])CC2)C(=O)NC[C@H]2CC[C@H](C(=O)N[C@@H](Cc3c4ccccc4cc4ccccc34)C(=O)NCCCC[C@H](NC(=O)N[C@@H](COCC(=O)O)C(=O)O)C(=O)O)CC2)cc1.[177Lu+3] [[^177Lu]Lu-HTK04028]	1.53
COc1ccc(CCCC(=O)NCC(=O)N[C@@H](CCCCNC(=O)CN2CCN(CC(=O)[O-])CCN(CC(=O)[O-])CCN(CC(=O)[O-])CC2)C(=O)NC[C@H]2CC[C@H](C(=O)N[C@@H](Cc3c4ccccc4cc4ccccc34)C(=O)NCCCC[C@H](NC(=O)N[C@@H](CSCC(=O)O)C(=O)O)C(=O)O)CC2)cc1.[177Lu+3] [[^177Lu]Lu-HTK04048]	1.77
O=C([O-])CN1CCN(CC(=O)[O-])CCN(CC(=O)NCC2CCC(C(=O)NC(Cc3c4ccccc4cc4ccccc34)C(=O)NCCCCC(NC(=O)NC(COCC(=O)O)C(=O)O)C(=O)O)CC2)CCN(CC(=O)[O-])CC1.[68Ga+3] (centres unmarked) [[^68Ga]Ga-HTK03187]	0.12
O=C([O-])CN1CCN(CC(=O)[O-])CCN(CC(=O)NCC2CCC(C(=O)NC(Cc3c4ccccc4cc4ccccc34)C(=O)NCCCCC(NC(=O)NC(CSCC(=O)O)C(=O)O)C(=O)O)CC2)CCN(CC(=O)[O-])CC1.[68Ga+3] (centres unmarked) [[^68Ga]Ga-HTK03177]	0.14
COc1ccc(CCCC(=O)NCC(=O)N[C@@H](CCCCNC(=O)CN2CCN(CC(=O)[O-])CCN(CC(=O)[O-])CCN(CC(=O)[O-])CC2)C(=O)NC[C@H]2CC[C@H](C(=O)N[C@@H](Cc3c4ccccc4cc4ccccc34)C(=O)NCCCC[C@H](NC(=O)N[C@@H](CCCC(=O)O)C(=O)O)C(=O)O)CC2)cc1.[177Lu+3] [[^177Lu]Lu-HTK03170]	1.41

* * *

- Test system: LNCaP tumor-bearing mice
- MEASUREMENT_DESCRIPTION: Ex vivo biodistribution in LNCaP tumor-bearing mice
- Parameters: species or system mouse
- ASSAY_CONTEXT: 1 h post-injection
Measured Testes uptake of individual entries

COMPOUND	Testes uptake / %ID/g
O=C([O-])CN1CCN(CC(=O)[O-])CCN(CC(=O)NCC2CCC(C(=O)NC(Cc3c4ccccc4cc4ccccc34)C(=O)NCCCCC(NC(=O)NC(COCC(=O)O)C(=O)O)C(=O)O)CC2)CCN(CC(=O)[O-])CC1.[68Ga+3] (stereo not drawn) [[^68Ga]Ga-HTK03187]	0.15
COc1ccc(CCCC(=O)NCC(=O)N[C@@H](CCCCNC(=O)CN2CCN(CC(=O)[O-])CCN(CC(=O)[O-])CCN(CC(=O)[O-])CC2)C(=O)NC[C@H]2CC[C@H](C(=O)N[C@@H](Cc3c4ccccc4cc4ccccc34)C(=O)NCCCC[C@H](NC(=O)N[C@@H](COCC(=O)O)C(=O)O)C(=O)O)CC2)cc1.[177Lu+3] [[^177Lu]Lu-HTK04028]	2.26
O=C([O-])CN1CCN(CC(=O)[O-])CCN(CC(=O)NCC2CCC(C(=O)NC(Cc3c4ccccc4cc4ccccc34)C(=O)NCCCCC(NC(=O)NC(CSCC(=O)O)C(=O)O)C(=O)O)CC2)CCN(CC(=O)[O-])CC1.[68Ga+3] (stereo not drawn) [[^68Ga]Ga-HTK03177]	0.25
